Origin of values: ChEMBL document CHEMBL1201862

System: U-251
Assay: NCI tumour cell line growth inhibition, 48 h
Activity calls are given as the source filed them. No stated cut-off is given here; in the data, active = GI50 up to about 1.1 µM and inactive = higher. Residues, ends and D or L forms follow the SMILES beside them. *: point of attachment. X38 = O=C(c1ccc(-c2ccc(Cl)cc2Cl)o1)*
Readout Label: GI50

Task item: Answer with the recorded GI50 for the molecule listed here: `Cc1ccc(/C=C2\Sc3scc(-c4ccccc4)[n+]3C2=O)cc1`
Reply: 16.2 µM (inactive)

Task item: Answer with the recorded GI50 for the molecule listed here: COC(=O)C(CC(C)C)NC(=O)C(Cc1ccccc1)NC(=O)C1CCCN1C(=O)C(CO)NC(=O)c1ccc(-c2ccc(Cl)cc2Cl)o1 (configuration not stated) (X38-SPFL-OMe; configuration not given here)
Reply: 21.4 µM (inactive)

Task item: Answer with the recorded GI50 for the molecule listed here: NC(=O)C1CCCNC1 (configuration not stated)
Reply: > 100 µM (inactive)

Task item: Answer with the recorded GI50 for the molecule listed here: `ClCCCc1ccccc1C1=NCCc2ccccc21`
Reply: 25.8 µM (inactive)

Task item: Answer with the recorded GI50 for the molecule listed here: `Cc1nn(C(=O)CC(=O)Nc2ccc(Cl)cc2)c(C)c1/N=N/c1ccccc1C(=O)O`
Reply: > 100 µM (inactive)

Task item: Answer with the recorded GI50 for the molecule listed here: `C[C@H]1C(=O)O[C@@H]1[C@H]1COC(C)(C)O1`
Reply: > 100 µM (inactive)

Task item: Answer with the recorded GI50 for the molecule listed here: `CNC(=O)Nc1nc2cc([N+](=O)[O-])ccc2[nH]1`
Reply: > 100 µM (inactive)

Task item: Answer with the recorded GI50 for the molecule listed here: `CC(=O)N1c2ccccc2N(C(C)=O)C1c1ccc(C2N(C(C)=O)c3ccccc3N2C(C)=O)[nH]1`
Reply: > 100 µM (inactive)

Task item: Answer with the recorded GI50 for the molecule listed here: `Nc1nc(N)c(-c2ccc(Cl)cc2)c(CCC(=O)Nc2cccc(C(F)(F)F)c2)n1`
Reply: > 100 µM (inactive)

Task item: Answer with the recorded GI50 for the molecule listed here: `S=c1nc2[nH]c3ccc(Br)cc3c2n[nH]1`
Reply: 53.2 µM (inactive)

Task item: Answer with the recorded GI50 for the molecule listed here: O=C(O)C1CCCCN1c1ccccc1[N+](=O)[O-] (configuration not stated)
Reply: > 100 µM (inactive)

Task item: Answer with the recorded GI50 for the molecule listed here: `CCOC(=O)c1cc2c([N+](=O)[O-])c(N)ccc2s1`
Reply: > 100 µM (inactive)

Task item: Answer with the recorded GI50 for the molecule listed here: `Cc1c(C(=O)O)n2cnnc2c2ccccc12`
Reply: > 100 µM (inactive)

Task item: Answer with the recorded GI50 for the molecule listed here: `CCOc1ccc(/C(C=O)=C(\Cl)c2ccc(OC)c(OC)c2)cc1`
Reply: > 100 µM (inactive)

Task item: Answer with the recorded GI50 for the molecule listed here: Cc1cccc2oc3c(c(=O)c12)CC(O)C(C)(C)O3 (configuration not stated)
Reply: > 100 µM (inactive)

Task item: Answer with the recorded GI50 for the molecule listed here: O=C1/C(=C/c2ccc(Cl)cc2)CCC1CN1CCOCC1 (configuration not stated)
Reply: 15.9 µM (inactive)

Task item: Answer with the recorded GI50 for the molecule listed here: `CN(CCNC(=O)c1cn(C)c2c1ccc1cc(Cl)c(Cl)cc12)CCNC(=O)c1cn(C)c2c1ccc1cc(Cl)c(Cl)cc12`
Reply: 1.77 µM (inactive)

Task item: Answer with the recorded GI50 for the molecule listed here: `CCOC(=O)Cc1ccc2c(c1O)C(=O)c1c(ccc(CC(=O)OCC)c1O)C2=O`
Reply: 83.8 µM (inactive)

Task item: Answer with the recorded GI50 for the molecule listed here: `CN1C(=O)N(C)C2(CCN(CCCCCCF)CC2)C1=O`
Reply: > 100 µM (inactive)

Task item: Answer with the recorded GI50 for the molecule listed here: `CCO/C([O-])=C(\C(=O)c1ccccc1)[n+]1c(C)n(C)c2ccccc21`
Reply: > 100 µM (inactive)

Task item: Answer with the recorded GI50 for the molecule listed here: COC(=O)/C(=N\NC(C)(C)C)C(C(=O)OC)C(=O)C(=O)Nc1cc(Cl)ccc1Cl (configuration not stated)
Reply: > 100 µM (inactive)

Task item: Answer with the recorded GI50 for the molecule listed here: `CC(C)=CCC/C(=C/CC/C(=C\CCc1ccoc1)C(=O)O)C(=O)O`
Reply: > 100 µM (inactive)

* * *

Provide the reported GI50 of each item.
Test system: MDA-MB-231
Assay: NCI tumour cell line growth inhibition, 48 h
Calls of active or inactive are those of the source. Rule as the data show it: active = GI50 up to about 1.1 µM and inactive = higher. Peptide text beside a SMILES is read from it.

Task item: Give GI50 only, for CCC(C)C(NC(=O)C(NC(=O)C(CC(N)=O)NC(=O)CN)C(C)O)C(=O)NC(C(=O)NC(C)C(=O)NC(C(=O)NC(CCC(=O)O)C(=O)NC(CC(C)C)C(=O)NC(CC(=O)O)C(=O)NC(C(=O)NC(Cc1ccc(O)cc1)C(=O)N1CCCC1C(=O)O)C(C)O)C(C)C)C(C)C (stereo not drawn) (H-GNTIVAVELDTYP-OH; configuration not given here) , using MDA-MB-231 data.
Reply: 18.9 µM (inactive)

Task item: Give GI50 only, for `C[n+]1c2ccccc2c(N=[N+]=[N-])c2ccccc21` , using MDA-MB-231 data.
Reply: 8.63 µM (inactive)

Task item: Give GI50 only, for `CC(=O)Oc1ccccc1-c1cc2ccccc2oc1=O` , using MDA-MB-231 data.
Reply: > 100 µM (inactive)

* * *

System: SNB-75
Test: NCI tumour cell line growth inhibition, 48 h
Activity calls are given as the source filed them. Rule as the data show it: active = GI50 up to about 1.1 µM and inactive = higher.
Could you please pick one outcome from this set? Yes for active, No for inactive

Task item: Dear all, I need the recorded test outcome for C=C(CCCCC)CN1CCCC1[C@@](C)(O)CC(=O)OCC (stereo partly drawn) , thank you.
Reply: No

Task item: Dear all, I need the recorded test outcome for `COc1c2c(c(OC)c3c(=O)cc(C/C(=N/NC(=O)C[n+]4ccccc4)C(=O)Nc4cc(C)ccc4C)oc13)OCO2` , thank you.
Reply: No

Task item: Dear all, I need the recorded test outcome for N#CC12CNCC1CN=N2 (stereo not drawn) , thank you.
Reply: No

Task item: Dear all, I need the recorded test outcome for O=C1c2cc3c(cc2CC1Br)CCC3 (stereo not drawn) , thank you.
Reply: No

Task item: Dear all, I need the recorded test outcome for `O=C1c2c(c(-c3ccccc3)c(-c3ccccc3)c(-c3ccccc3)c2-c2ccccc2)C(=O)N1c1cccc(Br)c1` , thank you.
Reply: No

Task item: Dear all, I need the recorded test outcome for `CCN(CCCl)c1cc(CN(C)C)cc(NC(=O)C23CCC(C(=O)Nc4cc(CN(C)C)cc(N(CC)CCCl)c4)(CC2)CC3)c1` , thank you.
Reply: Yes

Task item: Dear all, I need the recorded test outcome for `CC(=O)N1c2ccccc2N(C(C)=O)C1c1ccc(C2N(C(C)=O)c3ccccc3N2C(C)=O)[nH]1` , thank you.
Reply: No

Task item: Dear all, I need the recorded test outcome for `C[C@H]1C(=O)O[C@@H]1[C@H]1COC(C)(C)O1` , thank you.
Reply: No

Task item: Dear all, I need the recorded test outcome for `COc1cc(NCc2ccc3nc(OC)c(OC)nc3c2)cc(OC)c1OC` , thank you.
Reply: No

Task item: Dear all, I need the recorded test outcome for `Cc1cc(C)nc(NC(=O)COc2ccc(Cl)cc2)c1` , thank you.
Reply: No

Task item: Dear all, I need the recorded test outcome for `Cc1ccc(S(=O)(=O)NC(=O)Nc2nnc(S(N)(=O)=O)s2)cc1` , thank you.
Reply: No

Task item: Dear all, I need the recorded test outcome for `Cc1nc2ccc(F)cc2c2c1CCN2c1ccc(Cl)cc1` , thank you.
Reply: No

Task item: Dear all, I need the recorded test outcome for `CN(C)CCCN1C(=S)N(CCCN(C)C)c2c3ccccc3nc3c([N+](=O)[O-])ccc1c23` , thank you.
Reply: No

Task item: Dear all, I need the recorded test outcome for `ClCc1nn(-c2ccccc2)c(CCl)c1CCl` , thank you.
Reply: No

Task item: Dear all, I need the recorded test outcome for `C=C(CN(C)C)C(=O)c1ccc(OC)cc1` , thank you.
Reply: No

Task item: Dear all, I need the recorded test outcome for `O=C(/C=C/c1ccccc1O)c1ccccc1Cl` , thank you.
Reply: No

Task item: Dear all, I need the recorded test outcome for CC1=CC(c2ccccc2)OP1(=O)c1ccccc1 (stereo not drawn) , thank you.
Reply: No

Task item: Dear all, I need the recorded test outcome for `C=CC(C)(C)C(=C)C(=O)N(C)c1ccccc1I` , thank you.
Reply: No

Task item: Dear all, I need the recorded test outcome for `Cc1ccc2c(O)cc(-c3ccsc3)nc2n1` , thank you.
Reply: No

Task item: Dear all, I need the recorded test outcome for COc1ccc(C2OC2C(=O)C23CC4CC(CC(C4)C2)C3)cc1 (stereo not drawn) , thank you.
Reply: No

Task item: Dear all, I need the recorded test outcome for `CC(C)(O)c1cc2c(cc1C(C)(C)O)-c1ccccc1-2` , thank you.
Reply: No

Task item: Dear all, I need the recorded test outcome for COC(=O)c1cc(C)ccc1C1CN=NC12Cc1cccc(C)c1C2=O (stereo not drawn) , thank you.
Reply: No

Task item: Dear all, I need the recorded test outcome for `Cn1c(Sc2ccc(-c3cccnc3)n2C)ccc1-c1cccnc1` , thank you.
Reply: No
